Where these numbers come from: PubChem BioAssay

Assay procedure: Restrictive medium S. cerevisiae growth inhibition, OD615, pilot screen of yeast lifespan reduction project, restrictive growth control (AID 706);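 further: modified DeaD lifespan yeast strain shifted to restrictive glucose medium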
Condition description: OD615, 48 h, at 10 µM, hits give high values
Reported growth inhibition values follow for various compounds
Supply the numeric figure in %, leaving out any unit text.

Query (compound): CCNc1nc(NCC)nc(Oc2ccc(OCC)nn2)n1 ; field requested: growth inhibition -14.6

Can you share its growth inhibition? I mean this compound: O=C(c1oc(=O)c2ccccc2c1-c1ccccc1)N1CCC(O)CC1 -0.17

Name the reported growth inhibition value associated with the compound COc1cc(C)c(C(C)C)cc1S(=O)(=O)n1cnc(C)c1 6.4

What growth inhibition value was documented for this compound, CCOC(=O)c1ccc(N=c2sc(C(=O)OC)cc(=O)n2CCCN2CCOCC2)cc1 ? -3.88

Can you look up the measured growth inhibition of Cc1cccc(Cn2c(N(C)Cc3ccccc3)nc3c2c(=O)[nH]c(=O)n3C)c1 for me? -7.32

Fill in the blank: the reported growth inhibition of CCCNc1nc2c(c(=O)n(C)c(=O)n2C)n1Cc1ccc(F)cc1 is ____. -4.52
